Biological target: PfUBA1 (ubiquitin activating enzyme, E1; PF3D7_1225800) (Plasmodium falciparum, UniProt Q8I5F9)
Construct: Thr39 to Lys1140, N-terminal His10-tag, insect cells; with ubiquitin (Cy5-labelled, M1C)
Sequence (Q8I5F9 entry or part of it): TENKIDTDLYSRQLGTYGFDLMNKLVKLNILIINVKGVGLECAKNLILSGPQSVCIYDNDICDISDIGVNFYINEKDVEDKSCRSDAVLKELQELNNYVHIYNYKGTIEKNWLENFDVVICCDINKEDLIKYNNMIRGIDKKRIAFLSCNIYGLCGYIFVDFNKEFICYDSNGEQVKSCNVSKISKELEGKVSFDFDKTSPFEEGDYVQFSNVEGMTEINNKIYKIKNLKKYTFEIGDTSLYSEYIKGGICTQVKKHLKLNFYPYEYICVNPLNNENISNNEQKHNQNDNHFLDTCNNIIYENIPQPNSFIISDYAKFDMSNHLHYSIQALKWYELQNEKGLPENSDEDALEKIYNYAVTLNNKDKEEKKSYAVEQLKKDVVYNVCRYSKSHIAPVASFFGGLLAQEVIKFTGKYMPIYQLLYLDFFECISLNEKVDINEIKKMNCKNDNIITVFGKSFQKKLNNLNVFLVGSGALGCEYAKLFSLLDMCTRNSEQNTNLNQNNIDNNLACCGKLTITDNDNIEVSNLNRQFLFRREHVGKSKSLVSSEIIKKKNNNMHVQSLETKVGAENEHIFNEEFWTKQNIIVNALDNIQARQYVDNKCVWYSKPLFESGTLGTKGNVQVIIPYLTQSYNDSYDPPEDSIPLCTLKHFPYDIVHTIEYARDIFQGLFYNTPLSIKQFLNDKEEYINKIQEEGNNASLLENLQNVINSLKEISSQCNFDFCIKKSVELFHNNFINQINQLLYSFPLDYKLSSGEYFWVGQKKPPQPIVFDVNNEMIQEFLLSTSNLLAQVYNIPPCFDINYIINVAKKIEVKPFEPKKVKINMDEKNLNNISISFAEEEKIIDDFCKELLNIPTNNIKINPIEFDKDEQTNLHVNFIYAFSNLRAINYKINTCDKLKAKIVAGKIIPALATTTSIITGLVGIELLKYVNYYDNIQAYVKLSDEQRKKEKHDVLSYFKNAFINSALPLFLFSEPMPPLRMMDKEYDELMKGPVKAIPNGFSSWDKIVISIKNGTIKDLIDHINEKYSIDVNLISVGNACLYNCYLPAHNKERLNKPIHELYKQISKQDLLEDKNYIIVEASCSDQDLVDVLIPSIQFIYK
Assay: Cy5-ubiquitin~E1 thioesterification gel assay with recombinant PfUBA1
Measured IC50 of individual entries
Dear colleague, please return just the value in µM, with no unit written.

IC50 measured on NS(=O)(=O)OC[C@@H]1C[C@@H](n2ccc3c(N[C@H]4CCc5ccccc54)ncnc32)C[C@@H]1O [MLN4924] = 47

IC50 measured on NS(=O)(=O)OC[C@H]1C[C@@H](Nc2ccnc3cc(-c4cccc(SC(F)(F)F)c4)nn23)[C@H](O)[C@@H]1O [MLN7243] = 1.4
